Each entry below carries its recorded EC50.
tested on: Human immunodeficiency virus 2; experiment: Antiviral activity against HIV-2 infected in wild type CEM cells assessed as inhibition of virus-induced cytopathicity after 4 days; type: functional, organism-based; conditions: Human immunodeficiency virus 2, CCRF-CEM, 96 h
measurement_name: EC50

| compound | reported |
| --- | --- |
| Cc1cccc2c1O[P@@](=O)(OC[C@@H]1C=C[C@H](n3cc(C)c(=O)[nH]c3=O)O1)OC2 | 1.1 µM |
| Cc1cn([C@H]2C=C[C@@H](CO)O2)c(=O)[nH]c1=O [STAVUDINE] | 1.3 µM |
| Cc1cccc2c1O[P@](=O)(OC[C@@H]1C=C[C@H](n3cc(C)c(=O)[nH]c3=O)O1)OC2 | 0.17 µM |

###

Each entry below carries its recorded half-life.
assay: Hydrolysis half life in 25 mM phosphate buffer at pH 7.3 by reversed HPLC analysis; type: physicochemical
measurement_name: half-life (h)

| query_smiles | units_of_measure | reported |
| --- | --- | --- |
| Cc1cccc2c1O[P@](=O)(OC[C@@H]1C=C[C@H](n3cc(C)c(=O)[nH]c3=O)O1)OC2 | h | 22.1 |
| Cc1cccc2c1O[P@@](=O)(OC[C@@H]1C=C[C@H](n3cc(C)c(=O)[nH]c3=O)O1)OC2 | h | 9.2 |

Source: ChEMBL document CHEMBL2163319
